System: IGROV1 ovarian
Experiment: NCI-60 one-dose screen, 48 h
Condition set: 10 µM unless noted
About 83,000 compounds went through this panel and 20% of them were active in at least one assay; those are over-represented in the sample as a whole. Activity calls are given as the source filed them. The calls were made as follows: active = growth percent below 10; inactive = the rest.
Return exactly one item of 1 = active, -1 = inactive

Some solved cases for reference:
In [3]: df
Out[3]:
                                   molecule  cat
0  COc1ccc(CCN2CCC(CN(C)Cc3cnn(-c4ccccc4)c3)CC2)cc1   -1
1  O=C(NN1C(=O)CSC1c1ccc(Cl)cc1)c1[nH]c2ccc(F)cc2c1-c1ccccc1 (stereo unspecified)   -1
2  COc1ccc(-c2nsc3c2NC(=O)CC3c2ccsc2)cc1 (stereo unspecified)   -1
3  CSc1nc2c(c(=O)[nH]1)N=C1c3ccccc3C(=O)C1C(c1ccc(F)cc1)N2 (stereo unspecified)   -1
4  O=C(CN1C=NC2C(N3CCOCC3)=NC=NC21)c1ccc(Br)cc1 (stereo unspecified)   -1
5  COc1cc(NC(=O)CCSc2nc3ccccc3c(=O)n2CCc2ccccn2)cc(OC)c1OC   -1

Lookup: GET /call?item= CC(=O)c1ccc(Cc2ccc(C(C)=O)s2)s1 returns the recorded outcome of this test.
Found: -1

Lookup: GET /call?item= O=C(Nc1ccc(Cl)cc1F)c1cc(I)ccc1O returns the recorded outcome of this test.
Found: -1

Lookup: GET /call?item= COc1cc(-c2c3c(cn2S(=O)(=O)c2ccccc2)-c2nc(N)sc2CC3)cc(OC)c1OC returns the recorded outcome of this test.
Found: -1

Lookup: GET /call?item= CCn1c(-c2nonc2Nc2ccc(OC)cc2)nc2ccccc21 returns the recorded outcome of this test.
Found: -1

Lookup: GET /call?item= Nc1nonc1-n1nncc1-c1cccnc1 returns the recorded outcome of this test.
Found: -1

Lookup: GET /call?item= O=C1C(Cl)=C(NCc2ccco2)C(=O)c2ccccc21 returns the recorded outcome of this test.
Found: -1

Lookup: GET /call?item= O=C(Nc1ccc(I)cc1F)c1cc(F)ccc1O returns the recorded outcome of this test.
Found: -1

====

Test system: HCT-116 colon
Experiment: NCI-60 one-dose screen, 48 h (100 = growth as untreated, 0 = no growth, -100 = all killed)
Condition set: 10 µM unless noted
Compounds without any hit were thinned out: in the full panel of roughly 83,000, 20% have a hit.
Value kind: growth (%)
One number for each entry, in %.

Example entries begin here.
In [3]: df
Out[3]:
                                   compound  measured_target  observed_value
0  N#C/C(=C\c1c(-c2ccccc2)[nH]c2ccccc12)S(=O)(=O)c1ccccc1    HCT-116 colon            36.8
1  CCN1C(=O)N(CC)C2Nn3c(s/c(=C4\C(=O)N(C(C)C)c5ccccc54)c3=O)=NC21 (configuration not stated)    HCT-116 colon             6.5
2             Nc1nc(Nc2cccc(F)c2)nc2ccccc12    HCT-116 colon            23.1
3  COc1cc([C@@H]2NC(=O)NC(C)=C2C(=O)Nc2nc(-c3ccc(Cl)cc3)cs2)ccc1O    HCT-116 colon            99.3
4  O=c1c2cc(F)ccc2sc2c(NCCN3CCCC3)nc3ccccc3c12    HCT-116 colon            39.1
5  CCCCCCn1c(=N)n(CC(O)COc2cccc(C)c2)c2ccccc21 (configuration not stated)    HCT-116 colon           -33.8

Please give growth, item by item, for the list that follows.
1. Cn1c(/C=C(\C#N)c2cccc(C(F)(F)F)c2)nc2c(N3CCOCC3)nc(Cl)nc21
2. CCc1ccc(CNCC(O)c2ccccc2)cc1 (configuration not stated)

Found:
1: -85.5; 2: 47.8

Please give growth, item by item, for the list that follows.
1. COc1c2ccoc2c(/C=C/C=O)c2oc(-c3ccccc3)cc(=O)c12
2. COc1ccc(-c2c(-c3ccc(OC)c(O)c3)cnc3ncnn23)cc1
3. O=C(Nc1ccc(Br)cc1F)c1cc(I)ccc1O
4. CC(C)c1ccc(S(=O)(=O)NC(=O)NC2CCCC2)cc1
5. O=C(CSc1ncccc1C(=O)O)Nc1ccc(Oc2ccccc2)cc1
6. CC1=NCC2NC(=O)NC(C)=C12 (configuration not stated)
7. COC(=O)c1ccc(NC(=O)CSc2nc3ccccc3c(=O)n2-c2ccccc2)cc1

Found:
1. -56.6
2. 98
3. 5.43
4. 97.5
5. 96.9
6. 101
7. 97.7

Please give growth, item by item, for the list that follows.
1. COc1cc(-c2c3c(cn2S(=O)(=O)c2ccccc2)-c2nc(N)sc2CC3)cc(OC)c1OC
2. O=C(Nc1ccc(I)cc1F)c1cc(Br)ccc1O
3. CCOC(=O)c1cnc2c(C)cccc2c1Nc1ccc(C(C)=O)cc1
4. CCOC(=O)c1sc(-c2ccc(OS(=O)(=O)C[C@]34CCC(CC3=O)C4(C)C)c(C=O)c2)nc1C
5. COc1cc(/C=C2\Oc3cc(OCCCN4CCCC4)ccc3C2=O)cc(OC)c1
6. CC(=O)Nc1nc2c(s1)CCc1c-2cn(S(=O)(=O)c2ccccc2)c1-c1ccccc1
7. O=C(/C=C/c1ccccc1)c1ccc(Nc2nc(NCCO)nc(Nc3ccc(Cl)cc3)n2)cc1

Found:
1: 24; 2: -8.63; 3: 1.75; 4: 5.89; 5: -67.3; 6: 57.9; 7: 27.5

Origin of values: PubChem BioAssay (NCI)
